# Tested on: MCF7 (ER+)
# protocolText: MTT proliferation assay, MCF7
# Assay type: cell-based
# conditionSet: Homo sapiens; MCF7; Example 6; MTT after 48 h; read-out: IC50, proliferation
measurementKind: IC50 (µM)
Just the number please, in µM, no unit attached.

Value of IC50 reported for the molecule CC(C)c1nc(CN(C)C(=O)NC(C(=O)NC(Cc2ccccc2)CC(O)C(N)Cc2ccccc2)C(C)C)cs1 (stereo not shown) is 15
